# Protocol Text: growth inhibition, single agents and combos, UWB1.289, cell-based, BGB or cisplatin combos, synergistic combos for chromothripsis tumors (AID 1671456);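 also: cells exposed to compound for four days; 0% = vehicle DMSO and 100% = killing by high DMSO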
# Condition Description: UWB1.289 ovarian carcinoma cells, at 0.5 µM, hits give high values
Calls of active or inactive are those of the source. Rule as the data show it: active = inhibition above about 80%; inactive = the rest.
Quantity: inhibition

Below, 2 compounds whose answers are already recorded.
Smiles Repr | Result
CC(=O)Nc1nc(C)c(-c2ccc(Cl)c(S(=O)(=O)NCCO)c2)s1 | 10.9% (inactive)
Nc1nc2n[nH]nc2c(=O)[nH]1 | 32.6% (inactive)

Answer for every listed entry: what is its inhibition? The entries follow.
1. O=C(CCCCCCNC(=O)c1cnc(N(c2ccccc2)c2ccccc2Cl)nc1)NO
2. O=c1cc(N2CCOCC2)oc2c1ccc1ccccc12
3. CO[C@H]1/C=C/O[C@@]2(C)Oc3c(C)c(O)c4c(O)c(c(/C=N\N5CCN(C6CCCC6)CC5)c(O)c4c3C2=O)NC(=O)/C(C)=C\C=C\[C@H](C)[C@H](O)[C@@H](C)[C@@H](O)[C@@H](C)[C@H](OC(C)=O)[C@@H]1C
4. C=C1[C@H](CO)[C@@H](O)C[C@@H]1n1cnc2c(=O)[nH]c(N)nc21

1: 8.33% (inactive); 2: -1.52% (inactive); 3: 0.22% (inactive); 4: -8.13% (inactive)
